The measured values listed here are drawn from patent US4372948A.

# Test system: pyrexia (Saccharomyces cerevisiae)
# Assay Protocol: Anti-pyrexia activity (yeast-induced)
# Format: in vivo
# Reported Conditions: Rattus norvegicus, oral, read-out: Rate of inhibiting pyrexia (I.R.)
Readout Label: inhibition in vivo at 1000 mg/kg (%)

1. O=C(OC1CCCCC1)c1ccc(NC2OC[C@@H](O)[C@H](O)[C@H]2O)cc1 (stereo partly drawn) [Compound 18, cyclohexyl p-aminobenzoate-N-D-xyloside]
62
2. O=C(OCc1ccccc1)c1ccc(NC2C[C@H](O)[C@H](O)CO2)cc1 (stereo partly drawn) [Compound 13, benzyl p-aminobenzoate-N-D-deoxyriboside]
39
3. O=C(OC1CCCCC1)c1ccc(NC2O[C@H](CO)[C@@H](O[C@H]3O[C@H](CO)[C@@H](O[C@H]4O[C@H](CO)[C@@H](O)[C@H](O)[C@H]4O)[C@H](O)[C@H]3O)[C@H](O)[C@H]2O)cc1 (some centres unmarked) [Compound 20]
23
4. O=C(OCC1CCCCC1)c1ccc(NC2O[C@H](CO)[C@@H](O)[C@H](O)[C@H]2O)cc1 (some centres unmarked) [Compound 24]
48
5. C[C@@H]1OC(Nc2cccc(C(=O)OCc3ccccc3)c2)[C@@H](O)[C@H](O)[C@@H]1O (stereo partly drawn) [Compound 11, benzyl m-aminobenzoate-N-L-fucoside]
29
6. NC(=O)c1ccc(NC2O[C@H](CO)[C@@H](O)[C@H](O)[C@@H]2O)cc1 (stereo partly drawn) [Compound 4, p-aminobenzoic acid amide-N-D-mannoside]
28
7. O=C(OCc1ccccc1)c1ccc(NC2(CO)OC[C@@H](O)[C@@H](O)[C@@H]2O)cc1 (stereo partly drawn) [Compound 15, benzyl p-aminobenzoate-N-D-fructoside]
26
8. O=C(OCC1CCCCC1)c1ccccc1NC1O[C@H](CO)[C@@H](O[C@@H]2O[C@H](CO)[C@H](O)[C@H](O)[C@H]2O)[C@H](O)[C@H]1O (some centres unmarked) [Compound 21]
28
9. O=C(OC1CCCCC1)c1ccc(NC2O[C@H](CO)[C@@H](O[C@@H]3O[C@H](CO)[C@@H](O)[C@H](O)[C@H]3O)[C@H](O)[C@H]2O)cc1 (some centres unmarked) [Compound 19]
37
10. O=C(OC1CCCCC1)c1cccc(NC2O[C@H](CO)[C@@H](O)[C@H](O)[C@@H]2O)c1 (stereo partly drawn) [Compound 17, cyclohexyl m-aminobenzoate-N-D-mannoside]
30
11. O=C(OCc1ccccc1)c1ccc(NC2O[C@H](CO)[C@@H](O)[C@H](O)[C@H]2O)cc1 (stereo partly drawn) [Compound 14, benzyl p-aminobenzoate-N-D-glucoside]
56
12. COC(=O)Cc1ccc(NC2O[C@@H](C)[C@H](O)[C@@H](O)[C@H]2O)cc1 (some centres unmarked) [Compound 26]
60
13. NC(=O)c1ccccc1NC1(CO)OC[C@@H](O)[C@@H](O)[C@@H]1O (stereo partly drawn) [Compound 1, o-Aminobenzoic acid amide-N-D-fructoside]
41
14. O=C(Oc1ccccc1)c1ccc(NC2OC[C@@H](O)[C@H](O)[C@H]2O)cc1 (stereo partly drawn) [Compound 8, phenyl p-aminobenzoate-N-D-xyloside]
47
15. O=C(OC1CCCCC1)c1ccccc1NC1C[C@H](O)[C@H](O)CO1 (some centres unmarked) [Compound 16]
48
16. O=C(OCC1CCCCC1)c1ccc(NC2OC[C@@H](O)[C@@H](O)[C@H]2O)cc1 (some centres unmarked) [Compound 23]
15
17. NC(=O)c1ccc(NC2OC[C@@H](O)[C@H](O)[C@H]2O)cc1 (stereo partly drawn) [Compound 3, p-aminobenzoic acid amide-N-D-xyloside]
20
